Target: T1, hBCMA (human BCMA) (Homo sapiens, UniProt Q02223)
T1 sequence (Q02223 1-184): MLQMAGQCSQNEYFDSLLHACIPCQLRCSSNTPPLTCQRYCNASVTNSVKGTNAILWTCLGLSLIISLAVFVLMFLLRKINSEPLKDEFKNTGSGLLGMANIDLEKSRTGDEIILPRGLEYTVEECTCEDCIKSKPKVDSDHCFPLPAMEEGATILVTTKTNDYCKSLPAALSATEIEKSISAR
Assay: Kinetics and affinity of hBCMA/human IgG interactions by SPR (Bio-Rad Proteon XPR36)
Format: binding
Conditions: human BCMA, 37° C.
Experimental: All experiments were performed on a Bio-Rad Proteon XPR36 surface Plasmon resonance biosensor (Bio-Rad, Hercules, Calif.). […] The analysis temperature for the hBCMA binding analysis was 37° C. or 25° C. in a running buffer of HBS-T+, supplemented with 1 mg/mL BSA. […] Immediately after the 50 nM hBCMA injection, dissociation was monitored for 2 hours. […]
measurement_kind: ka Human (M⁻¹ s⁻¹)
Express it in M⁻¹ s⁻¹; write the number only.

{"molecule": "COMBO_Rd4_6 nM_C09: anti-BCMA antibody (antibody, V domains shown) VH: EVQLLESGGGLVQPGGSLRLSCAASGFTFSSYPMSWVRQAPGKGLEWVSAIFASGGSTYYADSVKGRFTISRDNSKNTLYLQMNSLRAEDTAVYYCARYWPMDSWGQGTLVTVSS VL: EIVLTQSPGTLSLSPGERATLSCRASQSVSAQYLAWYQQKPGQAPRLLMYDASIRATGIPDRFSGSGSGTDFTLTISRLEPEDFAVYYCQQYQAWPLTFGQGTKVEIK", "units": "M⁻¹ s⁻¹", "endpoint_result": "8.85e+06"}
{"molecule": "A02_Rd4_0.6 nM_C09: anti-BCMA antibody (antibody, V domains shown) VH: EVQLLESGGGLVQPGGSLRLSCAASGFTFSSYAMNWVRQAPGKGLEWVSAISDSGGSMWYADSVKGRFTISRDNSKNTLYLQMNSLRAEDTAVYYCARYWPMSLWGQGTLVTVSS VL: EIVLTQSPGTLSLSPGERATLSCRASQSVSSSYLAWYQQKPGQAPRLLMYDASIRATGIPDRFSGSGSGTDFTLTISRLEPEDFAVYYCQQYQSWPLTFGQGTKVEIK", "units": "M⁻¹ s⁻¹", "endpoint_result": "5.5e+06"}

Alright, here's another molecule for you.
Exercise: Item under review: COMBO_Rd4_0.6 nM_C02: anti-BCMA antibody (antibody, V domains shown) VH: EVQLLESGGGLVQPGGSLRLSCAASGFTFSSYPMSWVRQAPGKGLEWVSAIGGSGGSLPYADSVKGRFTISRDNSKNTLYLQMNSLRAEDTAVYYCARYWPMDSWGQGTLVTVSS VL: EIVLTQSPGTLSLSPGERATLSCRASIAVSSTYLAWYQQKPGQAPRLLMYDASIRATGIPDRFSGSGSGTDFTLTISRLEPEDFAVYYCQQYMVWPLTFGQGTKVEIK . Reported ka Human?
Solution: 8.57e+06
